Hey, just so you know, these numbers are from the supplement of paper PMC10307832.

Below, each entry is listed alongside its reported relative viability.
- Tested on: SW 1573
- assay.details: relative viability (nuclei count vs DMSO), 5 days (fraction); higher = more cells survive
- experimental.conditions: first compound 1.265 µM
The reply should be a number, written without any unit.

compound	measured
Cc1sc2c(c1C)C(c1ccc(Cl)cc1)=N[C@@H](CC(=O)OC(C)(C)C)c1nnc(C)n1-2 [JQ1] + N=C(N)NC(=N)NCCc1ccccc1 [Phenformin] (partner 250 µM)	0.231
Cc1sc2c(c1C)C(c1ccc(Cl)cc1)=N[C@@H](CC(=O)OC(C)(C)C)c1nnc(C)n1-2 [JQ1] + COc1cccc2cc(-c3nc([C@H]4CC[C@H](C(=O)O)CC4)n4ncnc(N)c34)[nH]c12 [OSI-027] (partner 0.5 µM)	0.229

# ---- query compound ----
(Q) Which relative viability is reported for this compound? Cc1sc2c(c1C)C(c1ccc(Cl)cc1)=N[C@@H](CC(=O)OC(C)(C)C)c1nnc(C)n1-2 [JQ1] + CS(=O)(=O)CCNCc1ccc(-c2ccc3ncnc(Nc4ccc(OCc5cccc(F)c5)c(Cl)c4)c3c2)o1 [Lapatinib] (partner 2 µM)
(A) 0.61

====

- Tested on: LCLC-97TM1
- assay.details: relative viability (nuclei count vs DMSO), 5 days (fraction); higher = more cells survive
- experimental.conditions: first compound 2.53 µM
readout.type: relative viability
// response body must contain only the number

compound	relative viability
Cc1cnc(-c2cnc(NCCNc3ccc(C#N)cn3)nc2-c2ccc(Cl)cc2Cl)[nH]1 + O=C(c1cc(Cc2n[nH]c(=O)c3ccccc23)ccc1F)N1CCN(C(=O)C2CC2)CC1 [Olaparib] (partner 8 µM)	0.316
Cc1cnc(-c2cnc(NCCNc3ccc(C#N)cn3)nc2-c2ccc(Cl)cc2Cl)[nH]1 + COc1cc2c(Oc3ccc(NC(=O)C4(C(=O)Nc5ccc(F)cc5)CC4)cc3F)ccnc2cc1OCCCN1CCOCC1 [Foretinib] (partner 0.25 µM)	0.86

(Q) I am curious: what relative viability value has been reported for Cc1cnc(-c2cnc(NCCNc3ccc(C#N)cn3)nc2-c2ccc(Cl)cc2Cl)[nH]1 + C[C@]1(O)C[C@@H](c2nc(-c3ccc4ccc(-c5ccccc5)nc4c3)c3c(N)nccn32)C1 [Linsitinib] (partner 1 µM) ?
(A) 0.208

====

- System: A-427
- assay.details: relative viability (nuclei count vs DMSO), 5 days (fraction); higher = more cells survive
- experimental.conditions: first compound 8 µM
compounds and their reported relative viability
In your answer, state the number alone without any accompanying words.

compound	measured
O=c1[nH]c2ccccc2n1C1CCN(CCCC(c2ccc(F)cc2)c2ccc(F)cc2)CC1 [Pimozide] + CS(=O)(=O)N1CCN(Cc2cc3nc(-c4cccc5[nH]ncc45)nc(N4CCOCC4)c3s2)CC1 [Pictilisib] (partner 1 µM)	0.668

(Q) May I ask what relative viability has been recorded for O=c1[nH]c2ccccc2n1C1CCN(CCCC(c2ccc(F)cc2)c2ccc(F)cc2)CC1 [Pimozide] + CS(=O)(=O)CCNCc1ccc(-c2ccc3ncnc(Nc4ccc(OCc5cccc(F)c5)c(Cl)c4)c3c2)o1 [Lapatinib] (partner 2 µM) ?
(A) 0.985

(Q) Form field: reported relative viability of O=c1[nH]c2ccccc2n1C1CCN(CCCC(c2ccc(F)cc2)c2ccc(F)cc2)CC1 [Pimozide] + COc1cccc2cc(-c3nc([C@H]4CC[C@H](C(=O)O)CC4)n4ncnc(N)c34)[nH]c12 [OSI-027] (partner 0.5 µM)
(A) 0.406

(Q) Query (compound): O=c1[nH]c2ccccc2n1C1CCN(CCCC(c2ccc(F)cc2)c2ccc(F)cc2)CC1 [Pimozide] + Nc1nc2[nH]cc(CCc3ccc(C(=O)N[C@@H](CCC(=O)O)C(=O)O)cc3)c2c(=O)[nH]1 [Pemetrexed] (partner 0.2 µM) ; field requested: relative viability
(A) 0.845

====

- Test system: SK-LU-1
- assay.details: relative viability (nuclei count vs DMSO), 5 days (fraction); higher = more cells survive
- experimental.conditions: first compound 0.002 µM
readout.type: relative viability
Give only the figure.

molecule	readout.type	measured
CC(=O)O[C@@]12CO[C@@H]1C[C@H](O)[C@@]1(C)C(=O)[C@H](O)C3=C(C)[C@@H](OC(=O)[C@H](O)[C@@H](NC(=O)OC(C)(C)C)c4ccccc4)C[C@@](O)([C@@H](OC(=O)c4ccccc4)[C@H]21)C3(C)C [Docetaxel] + Cc1nc(NC(=O)N2CCC[C@H]2C(N)=O)sc1-c1ccnc(C(C)(C)C(F)(F)F)c1 [Alpelisib] (partner 2 µM)	relative viability	0.495
CC(=O)O[C@@]12CO[C@@H]1C[C@H](O)[C@@]1(C)C(=O)[C@H](O)C3=C(C)[C@@H](OC(=O)[C@H](O)[C@@H](NC(=O)OC(C)(C)C)c4ccccc4)C[C@@](O)([C@@H](OC(=O)c4ccccc4)[C@H]21)C3(C)C [Docetaxel] + Cc1cc(Nc2cc(N3CCN(C)CC3)nc(Sc3ccc(NC(=O)C4CC4)cc3)n2)n[nH]1 [Tozasertib] (partner 0.1 µM)	relative viability	0.308
CC(=O)O[C@@]12CO[C@@H]1C[C@H](O)[C@@]1(C)C(=O)[C@H](O)C3=C(C)[C@@H](OC(=O)[C@H](O)[C@@H](NC(=O)OC(C)(C)C)c4ccccc4)C[C@@](O)([C@@H](OC(=O)c4ccccc4)[C@H]21)C3(C)C [Docetaxel] + N=C(N)NC(=N)NCCc1ccccc1 [Phenformin] (partner 250 µM)	relative viability	0.239

Next molecule, please.
(Q) What does the data say about its relative viability? Entry: CC(=O)O[C@@]12CO[C@@H]1C[C@H](O)[C@@]1(C)C(=O)[C@H](O)C3=C(C)[C@@H](OC(=O)[C@H](O)[C@@H](NC(=O)OC(C)(C)C)c4ccccc4)C[C@@](O)([C@@H](OC(=O)c4ccccc4)[C@H]21)C3(C)C [Docetaxel] + Nc1ncn([C@H]2C[C@H](O)[C@@H](CO)O2)c(=O)n1 [Decitabine] (partner 2 µM)
(A) 0.524

====

- System: LCLC-97TM1
- assay.details: relative viability (nuclei count vs DMSO), 5 days (fraction); higher = more cells survive
- experimental.conditions: first compound 2.53 µM
Measured relative viability of individual entries
Field format: numeric only.

(Q) Which measured relative viability belongs to O=c1[nH]c2ccccc2n1C1CCN(CCCC(c2ccc(F)cc2)c2ccc(F)cc2)CC1 [Pimozide] + NC(=O)Nc1cc(-c2cccc(F)c2)sc1C(=O)N[C@H]1CCCNC1 [AZD7762] (partner 0.2 µM) , tested on LCLC-97TM1?
(A) 0.246

(Q) I'm curious: which relative viability was measured for Cc1cnc(-c2cnc(NCCNc3ccc(C#N)cn3)nc2-c2ccc(Cl)cc2Cl)[nH]1 + CC(=O)c1c(C)c2cnc(Nc3ccc(N4CCNCC4)cn3)nc2n(C2CCCC2)c1=O [Palbociclib] (partner 0.5 µM) tested on LCLC-97TM1?
(A) 0.209

(Q) Enter reported relative viability observed with LCLC-97TM1 for Cc1cnc(-c2cnc(NCCNc3ccc(C#N)cn3)nc2-c2ccc(Cl)cc2Cl)[nH]1 + N=C(N)NC(=N)NCCc1ccccc1 [Phenformin] (partner 250 µM)
(A) 0.462

====

- Test system: NCI-H2085
- assay.details: relative viability (nuclei count vs DMSO), 5 days (fraction); higher = more cells survive
- experimental.conditions: first compound 0.5 µM
readout.type: relative viability
Give only the figure.

Please review the following examples before continuing.
compound	relative viability
Nc1ccn([C@@H]2O[C@H](CO)[C@@H](O)[C@@H]2O)c(=O)n1 [Cytarabine] + C[C@]1(O)C[C@@H](c2nc(-c3ccc4ccc(-c5ccccc5)nc4c3)c3c(N)nccn32)C1 [Linsitinib] (partner 1 µM)	0.55
COc1cc2nccc(Oc3ccc(NC(=O)Nc4cc(C)on4)c(Cl)c3)c2cc1OC [Tivozanib] + COc1cc2c(Oc3ccc(NC(=O)C4(C(=O)Nc5ccc(F)cc5)CC4)cc3F)ccnc2cc1OCCCN1CCOCC1 [Foretinib] (partner 0.25 µM)	1.01

Turning now to a further compound:
(Q) Which relative viability is listed for COc1cc2nccc(Oc3ccc(NC(=O)Nc4cc(C)on4)c(Cl)c3)c2cc1OC [Tivozanib] + N=C(N)NC(=N)NCCc1ccccc1 [Phenformin] (partner 250 µM) ?
(A) 0.673

====

Reported relative viability values are given for each entry in this list.
- Tested on: SK-LU-1
- assay.details: relative viability (nuclei count vs DMSO), 5 days (fraction); higher = more cells survive
- experimental.conditions: first compound 0.05 µM

compound	subject.of.test	readout.type	measured
COc1cc2nccc(Oc3ccc(NC(=O)Nc4cc(C)on4)c(Cl)c3)c2cc1OC [Tivozanib] + COc1cc2c(Oc3ccc(NC(=O)C4(C(=O)Nc5ccc(F)cc5)CC4)cc3F)ccnc2cc1OCCCN1CCOCC1 [Foretinib] (partner 0.25 µM)	SK-LU-1	relative viability	0.885

(Q) Look up relative viability with SK-LU-1 for this compound: COc1cc2nccc(Oc3ccc(NC(=O)Nc4cc(C)on4)c(Cl)c3)c2cc1OC [Tivozanib] + O=C(c1cc(Cc2n[nH]c(=O)c3ccccc23)ccc1F)N1CCN(C(=O)C2CC2)CC1 [Olaparib] (partner 8 µM)
(A) 0.528

(Q) // fetch SK-LU-1 relative viability for Nc1ccn([C@@H]2O[C@H](CO)[C@@H](O)[C@@H]2O)c(=O)n1 [Cytarabine] + C[C@]1(O)C[C@@H](c2nc(-c3ccc4ccc(-c5ccccc5)nc4c3)c3c(N)nccn32)C1 [Linsitinib] (partner 1 µM)
(A) 0.922

(Q) Notebook: pull reported relative viability for SK-LU-1, entry Nc1ccn([C@@H]2O[C@H](CO)[C@@H](O)[C@@H]2O)c(=O)n1 [Cytarabine] + CS(=O)(=O)N1CCN(Cc2cc3nc(-c4cccc5[nH]ncc45)nc(N4CCOCC4)c3s2)CC1 [Pictilisib] (partner 1 µM)
(A) 0.333

(Q) Reported relative viability for SK-LU-1, given Nc1ccn([C@@H]2O[C@H](CO)[C@@H](O)[C@@H]2O)c(=O)n1 [Cytarabine] + C[C@@H](Oc1cc(-c2cnn(C3CCNCC3)c2)cnc1N)c1c(Cl)ccc(F)c1Cl [Crizotinib] (partner 1 µM) ?
(A) 0.694

(Q) // lookup relative viability | system=SK-LU-1 | key= COc1cc2nccc(Oc3ccc(NC(=O)Nc4cc(C)on4)c(Cl)c3)c2cc1OC [Tivozanib] + CS(=O)(=O)CCNCc1ccc(-c2ccc3ncnc(Nc4ccc(OCc5cccc(F)c5)c(Cl)c4)c3c2)o1 [Lapatinib] (partner 2 µM)
(A) 0.895

(Q) Tell me reported relative viability for Nc1ccn([C@@H]2O[C@H](CO)[C@@H](O)[C@@H]2O)c(=O)n1 [Cytarabine] + CC(=O)Nc1cccc(-n2c(=O)n(C3CC3)c(=O)c3c(Nc4ccc(I)cc4F)n(C)c(=O)c(C)c32)c1 [Trametinib] (partner 0.02 µM) , tested with SK-LU-1.
(A) 0.423

(Q) For the record COc1cc2nccc(Oc3ccc(NC(=O)Nc4cc(C)on4)c(Cl)c3)c2cc1OC [Tivozanib] + Cc1cc(Nc2cc(N3CCN(C)CC3)nc(Sc3ccc(NC(=O)C4CC4)cc3)n2)n[nH]1 [Tozasertib] (partner 0.1 µM) , what value of relative viability is listed for SK-LU-1?
(A) 0.472

(Q) Write down the reported relative viability of COc1cc2nccc(Oc3ccc(NC(=O)Nc4cc(C)on4)c(Cl)c3)c2cc1OC [Tivozanib] + CC(C)C[C@H](NC(=O)[C@H](Cc1ccccc1)NC(=O)c1cnccn1)B(O)O [Bortezomib] (partner 0.002 µM) , test system: SK-LU-1.
(A) 1.2
